What pKd was measured for each of the following?
# measurement-target: T1, Extracellular domain (ECD) of the canine IL-4 receptor alpha-V5 epitope-AviTag-His Tag (canine)
# T1 construct: monomeric form isolated by size exclusion; also called canine IL-4RA-V5-Avi-His; canine IL-4RA
# T1 chain: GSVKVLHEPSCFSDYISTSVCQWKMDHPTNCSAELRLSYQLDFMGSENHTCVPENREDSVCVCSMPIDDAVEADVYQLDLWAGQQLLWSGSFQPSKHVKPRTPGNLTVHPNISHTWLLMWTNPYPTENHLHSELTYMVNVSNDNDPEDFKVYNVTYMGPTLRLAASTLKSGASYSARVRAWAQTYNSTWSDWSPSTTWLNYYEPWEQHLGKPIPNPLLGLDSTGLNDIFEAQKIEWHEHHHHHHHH
# method-summary: SPR, Fab-SASA captured on BSA;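 note: biacore T200 SPR, Fab-SASA variants from E. coli conditioned medium captured on BSA-coated CM5 chip, canine IL-4RA injected 120 s then 420 s dissociation, 1:1 model fit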
Give bare numbers, as −log10 of the molar value.

TB640_005 Fab-SASA VL-Q27L (Fab, V domains shown, not shown: SASA tag then His-tag) VH: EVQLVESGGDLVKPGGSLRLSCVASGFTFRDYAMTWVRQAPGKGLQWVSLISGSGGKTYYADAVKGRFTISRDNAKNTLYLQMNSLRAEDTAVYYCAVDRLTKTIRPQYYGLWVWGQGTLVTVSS VL: DIVMTQTPLSLSVSPGETASISCRSSLSLLYSIGYNYLDWYLQKPGQSPQGLIYLGSKRASGVPDRFSGSGSGTDFTLRISRVEANDTGVYYCMQGLQSPLTFGQGTKLEIKR :: 7.81

Then there is this binder:
Ask | Entry under review: TB640_005 Fab-SASA VH-Y110L (Fab, V domains shown, not shown: SASA tag then His-tag) VH: EVQLVESGGDLVKPGGSLRLSCVASGFTFRDYAMTWVRQAPGKGLQWVSLISGSGGKTYYADAVKGRFTISRDNAKNTLYLQMNSLRAEDTAVYYCAVDRLTKTIRPQYLGLWVWGQGTLVTVSS VL: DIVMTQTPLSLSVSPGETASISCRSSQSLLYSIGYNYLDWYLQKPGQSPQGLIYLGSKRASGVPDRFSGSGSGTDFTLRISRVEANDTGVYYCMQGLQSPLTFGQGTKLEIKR . Reported pKd?
Reply | 8.18
